- assayed-system: Protein phosphatase methylesterase 1 (Homo sapiens) (UniProt Q9Y570)
- Sequence (Q9Y570 whole entry, looked up): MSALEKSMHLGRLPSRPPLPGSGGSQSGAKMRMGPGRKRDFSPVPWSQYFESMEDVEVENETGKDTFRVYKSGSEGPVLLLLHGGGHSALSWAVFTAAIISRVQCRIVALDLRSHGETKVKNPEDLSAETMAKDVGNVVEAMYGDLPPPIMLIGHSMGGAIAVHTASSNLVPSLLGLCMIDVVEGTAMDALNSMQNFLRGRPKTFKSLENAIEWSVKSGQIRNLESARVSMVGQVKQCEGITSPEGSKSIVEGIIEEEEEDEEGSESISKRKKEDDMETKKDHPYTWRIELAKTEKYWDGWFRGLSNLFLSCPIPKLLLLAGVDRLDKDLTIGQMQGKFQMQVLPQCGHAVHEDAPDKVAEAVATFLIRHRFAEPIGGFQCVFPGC
- assay-notes: PME-1 inhibitor activity retest, confirmation, biochemical, fluorescence polarization, FP-Rh probe, triplicate (AID 2171);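 further: 0% = enzyme with DMSO and 100% = wells lacking PME-1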
- conditions-used: recombinant PME-1, FP-Rh probe fluorescence polarization; at 5.9 µM; stronger effect = higher value
Activity calls are given as the source filed them.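 How the source made its calls: active means inhibition above the hit cutoff set in the earlier primary screen (cut at about 27% in these data); inactive means the rest.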
Measured inhibition values are reported for all entries that follow.
measure: inhibition

{"columns": ["compound", "result-value"],
 "data": [
  ["Cc1ccc(-c2csc(-c3c[nH]c4ccccc34)n2)cc1", "11.1% (inactive)"],
  ["Cc1cc([N+](=O)[O-])ccc1-c1ccc(C2Nc3ccccc3C(=O)N2O)o1 (configuration not stated)", "25% (inactive)"],
  ["COc1ccc(-c2csc(NC(=O)c3ccccc3NS(=O)(=O)c3ccc(F)c(F)c3)n2)cc1", "-5.29% (inactive)"],
  ["CC1=NN(c2ccc(C)c(C)c2)C(=O)C1C(c1cccc(O)c1)C1C(=O)N(c2ccc(C)c(C)c2)N=C1C (configuration not stated)", "15.3% (inactive)"],
  ["O=C(c1ccccc1F)N1CCN(Cc2nc3sc4c(c3c(=O)[nH]2)CCCC4)CC1", "19.9% (inactive)"],
  ["CNc1ccc2c3c(cccc13)C(=O)N(C)C2=O", "71.2% (active)"],
  ["CCOC(=O)c1c(C)[nH]c(C2=NNC(=Nc3ccc(OCC)cc3)SC2)c1C", "18.9% (inactive)"],
  ["Cc1ccc(S(=O)(=O)/N=C2/C=C(Sc3ncn[nH]3)C(=O)c3ccccc32)c(C)c1", "49.6% (active)"],
  ["Cc1cc(SCC(=O)N/N=C/c2ccc(O)c(O)c2O)c(C)cc1Br", "-9.75% (inactive)"],
  ["CCCCNc1c2c3c(cccc3n(C)c1=O)C(=O)c1ccccc1-2", "71.1% (active)"],
  ["Cc1nn(-c2ccccc2)c(Cl)c1/C=N/Nc1ccc(S(=O)(=O)Nc2ccccc2C(=O)O)cc1[N+](=O)[O-]", "22.1% (inactive)"],
  ["Cc1ccc2nc(-c3sc4nc(C)cc(C)c4c3N)[nH]c2c1", "18.2% (inactive)"],
  ["CC(=O)Cc1cc(O)c2ccccc2c1OC(=O)c1ccc(Br)cc1", "24.8% (inactive)"],
  ["O=C(O)c1cc(N/N=C/c2c(O)ccc3ccccc23)ccc1Cl", "20.7% (inactive)"],
  ["CCC(=O)NC(c1ccccc1Cl)c1c(O)ccc2ccccc12 (configuration not stated)", "53.2% (active)"],
  ["Cc1ccc2sc(NNC(=O)c3cc(=O)c4ccccc4o3)nc2c1C", "68.1% (active)"],
  ["O=C(c1sc2ccccc2c1Cl)N1CCN(c2ncccn2)CC1", "24.4% (inactive)"]
]}
